Here the recorded MITC95 TarO inhibitor + 8 μg/mL DCX; Bacteria: SA_MB5393 is given for each entry.
Test system: MRSA COL (MB5393)
RUN_DESCRIPTION: TarO Inhibitor/β-Lactam Synergy Assay (growth, OD600)
Type: cell-based, Staphylococcus aureus
MEASUREMENT_CONDITIONS: in combination with 8 μg/mL dicloxacillin (DCX)
Give the value in µM but do not write µM after it.

Here's what some known entries look like.
COMPOUND | RECORDED_MEASUREMENT
COc1cccc(CNC(=O)N2C(=O)O[C@H](c3cc(C(F)(F)F)cc(C(F)(F)F)c3)[C@@H]2CO)c1OC [Example 52] | 0.06
Cc1ccccc1CNC(=O)N1C(=O)O[C@H](c2cc(F)cc(C(F)(F)F)c2)[C@@H]1C [Example 16] | 3.52
COc1cc(C(F)(F)F)cc([C@H]2OC(=O)N(C(=O)NCc3cncc4ccccc34)[C@H]2CO)n1 [Example 63] | 1.13
O=C(NCc1cncc2ccccc12)N1C(=O)O[C@H](c2cc(C(F)(F)F)cc(C(F)(F)F)c2)[C@@H]1CO [Example 50] | 0.64
Cc1nc(C(C)C)sc1CNC(=O)N1C(=O)O[C@H](c2cc(F)cc(C(F)(F)F)c2)[C@@H]1C [Example 20] | 3.65

Field request: MITC95 TarO inhibitor + 8 μg/mL DCX; Bacteria: SA_MB5393 | item: COc1cc([C@H]2OC(=O)N(C(=O)NCc3cccc4cncnc34)[C@H]2CO)cc(C(F)(F)F)c1 [Example 59] 10.42

What about C[C@H]1[C@@H](c2cc(C(F)(F)F)cc(C(F)(F)F)c2)OC(=O)N1C(=O)NCC1CCCc2ccccc21 (stereo partly shown) [Example 19] ? 1.45

Cited source for all entries: patent US11141410B2
